- System: Echinochloa crus-galli
- METHOD: Herbicidal post-emergence action (greenhouse pots), ECHCG
- Format: in vivo
- TEST_CONDITIONS: 1280 g/ha, rated after about 3 weeks, 100% = plants have died, 0% = like untreated control plants
REPORTED_ENDPOINT: ECHCG (herbicidal activity, rated visually in comparison to untreated controls) (%)
Numbers only, in %.

N#Cc1cccc(Nc2ncc(F)cn2)c1Oc1ccc(Cl)cc1 : 90
Fc1ccc(Oc2c(F)cccc2Nc2ncc(Cl)cn2)cc1 : 100
N#Cc1cccc(Nc2ncccn2)c1Oc1ccc(F)cc1 : 100
N#Cc1cccc(Nc2ncc(F)cn2)c1Oc1ccc(F)cc1 : 100
Fc1ccc(Oc2ccccc2Nc2ncc(Cl)cn2)cc1 : 90
N#Cc1cccc(Nc2ncc(F)cn2)c1Oc1ccc(Cl)cc1F : 90

# map each compound to its ECHCG (herbicidal activity, rated visually in comparison to untreated controls)
1. Fc1ccc(Oc2c(Cl)cccc2Nc2ncc(Cl)cn2)cc1
2. N#Cc1cccc(Nc2ncc(Cl)cn2)c1Oc1ccc(F)cc1F

1. 100
2. 100

----------
- System: Lolium rigidum
- METHOD: Herbicidal pre-emergence action (greenhouse pots), LOLRI
- Assay type: in vivo
- TEST_CONDITIONS: 1280 g/ha, visual scoring after about 3 weeks vs untreated controls
Can you tell me herbicidal activity LOLRI for the items I'm about to list?
Give bare numbers, in %.

N#Cc1cccc(Nc2ncc(Cl)cn2)c1Oc1ccc(F)c(F)c1 [Example 1-291] : 100
N#Cc1cccc(Nc2ncc(F)cn2)c1Oc1ccc(Cl)nc1 [Example 3-54] : 100

Here is another compound to look at.
Notebook: N#Cc1cccc(Nc2ncccn2)c1Oc1ccc(F)c(F)c1 [Example 1-253] , herbicidal activity LOLRI read as 100

Origin of the recorded values: patent US12415786B2
